Readings of abundance fitness for the listed variants
B1: POU domain, class 5, transcription factor 1, residues 134 to 212; numbered along this chain, Q01860 (parent)
chain: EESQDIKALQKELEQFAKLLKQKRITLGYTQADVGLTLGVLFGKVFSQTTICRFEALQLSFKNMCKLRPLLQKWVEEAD

# Variants of: B1
# ASSAY_INFO: abundance fitness (aPCA) (normalised: wild type 0, dead -1); higher = more abundant; growth selection in yeast, the domain comes from the species named
# APPLIED_CONDITIONS: Homo sapiens
Quick one: just the number, no unit, thanks!

Look over these answered cases.
{"MUTANT_LABEL": "K73E", "VALUE": -0.595}
{"MUTANT_LABEL": "K44P", "VALUE": -0.3}
{"MUTANT_LABEL": "R68T", "VALUE": -0.436}

-- ask Fill in: abundance fitness of "L67S" is ___
-- reply -0.608

-- ask State the recorded abundance fitness for this entry: "I25E"
-- reply -0.207

-- ask # input variant: "Q48G" ; wanted: its abundance fitness
-- reply 0.24

-- ask Request the reported abundance fitness associated with "Q22S"
-- reply 0.268

-- ask Fill blank: measured abundance fitness of the variant "M64E" is ____.
-- reply -0.763

The measurements presented in this section are drawn from the Human Domainome abundance scans (Beltran et al. 2025).
